tested on: MDA-MB-231 breast; test: NCI tumour cell line growth inhibition, 48 h

MOLECULE	UNIT	BOUND SIGN	TGI
C=CCN1CCC(O)(c2cc(C(=O)OCC)[nH]c2-c2cc(C)no2)C1 (stereo not given)	µM	>	100
O=C1CCC/C=C\C[C@H]2C=CC(=O)/C2=C/C[C@H](C/C=C\CC(F)(F)F)O1	µM	=	5.63
O=C(Cn1c(-c2ccccc2)cc2ccccc21)N1CCCC1	µM	>	100
Nc1ccn(C2OC(CO)C(O)C2O)c(=O)n1 (stereo not given)	µM	>	500
CC(=O)OCC1OC(n2c(C)cc(C)c(C#N)c2=S)C(OC(C)=O)C(OC(C)=O)C1OC(C)=O (stereo not given)	µM	>	100
COc1cc(/C=C\c2cc(OC)c(OC)c(OC)c2)cc(N/C=C\C(=O)c2cc(OC)c(OC)c(OC)c2)c1OC	µM	>	100
C=C(Nc1nc2ccc(C)cc2s1)C(=O)C(CC)C(=O)C(CC)CC1C(=O)NC(=O)NC1=O (stereo not given)	µM	>	100
CC(C)=CCc1cc(O)cc2c1OC(C=C(C)C)C1=C2C(=O)C2=C(C1=O)S(=O)(=O)CCN2 (stereo not given)	µM	=	8.27
C=CCN(C(=O)CNC(=O)C(F)(F)F)c1cc(OCc2ccccc2)c2c(c1)c(C)cn2S(=O)(=O)c1ccccc1	µM	>	100
CCOC(=O)/C=C(\C(=O)OCC)n1ccc(=O)n(Cc2cn(CCCCOC(C)=O)nn2)c1=O	µM	=	39.1
COc1ccc(-c2nc3ncccn3c2-c2ccc(SC)cc2)cc1	µM	>	100
CC1=C(/C=C/C(C)=C/C=C/C(C)=C/C(=O)OC2CC(n3cc(F)c(=O)[nH]c3=O)OC2CO)C(C)(C)CCC1 (stereo not given)	µM	=	29.4
COc1ccc(-c2cc(/C=C/C(=O)c3ccc(OC)c(OC)c3)[nH]n2)cc1	µM	=	6.63
Cc1nc2ccc(F)cc2c2c1CCN2c1ccc(Cl)cc1	µM	=	30.6
CCC(=O)O[C@H]1CC[C@H]2[C@@H]3CCC4=C/C(=N/OC(=O)c5cccc6cc7ccccc7nc56)CC[C@]4(C)[C@H]3CC[C@]12C	µM	>	100
COc1ccc(Cn2c(N)c(S(=O)(=O)c3ccc(Cl)cc3)c3nc(C#N)c(C#N)nc32)cc1	µM	=	20.9
O=C(NNc1ccccc1)C(=O)NNc1ccccc1	µM	>	100
CCOC(=O)c1sc2c(c1OC(=O)c1ccc(OC)cc1)c(=O)n(-c1ccccc1)c(=S)n2-c1ccccc1	µM	=	54.2
O=S(=O)(Nc1ccc(Cl)cc1Cl)c1ccc(-c2cnc(C3CC3)o2)cc1	µM	=	28.4
COc1ccc2c(C(=O)c3cn(CCN4CCOCC4)c4ccccc34)cccc2c1	µM	>	100
CC1C=CN(N(C)C)C2=C1C(=O)c1cnccc1C2=O (stereo not given)	µM	=	2.12
CN1CC[C@@H](c2c(O)cc(O)c3c(=O)cc(-c4ccc(C(F)(F)F)cc4Cl)oc23)[C@@H]1CO	µM	=	34.3
Cc1cc(N(CCCNc2ccnc3cc(Cl)ccc23)Cc2ccc3c(c2)OCO3)nc(N2CCOCC2)n1	µM	=	1.37
Cc1nc2cc(Nc3nc(Nc4ccc(F)cc4)nc(-c4cccs4)n3)ccc2n1Cc1ccccc1	µM	=	16.2
O=C(CNS(=O)(=O)Cc1ccccc1)NNc1ccccc1	µM	>	100
